Where do the numbers come from? From patent EP1800684A1.

tested on: Candida albicans (ATCC 90028); assay: Anti-fungal susceptibility test (microdilution), fungus B; format: cell-based; conditions: Candida albicans, ATCC90028, no visible growth after 48 hours at 35° C, read-out: MIC
List of MIC values.
readoutLabel: MIC (µg/mL)

>  <compound>
CCCCCCCCCCCCCCCCOCCCOP(=O)([O-])OCC[N+](C)(C)C

>  <units>
µg/mL

>  <qual>
=

>  <reported>
0.75

$$$$
>  <compound>
CCCCCCCCCCCCCCCCCCOP(=O)([O-])OC1CC[N+](CC)(CC)CC1

>  <units>
µg/mL

>  <qual>
=

>  <reported>
2

$$$$
>  <compound>
CCCCCCCCCCCCCCCCOP(=O)([O-])OCC[N+]1(C)CCCCC1

>  <units>
µg/mL

>  <qual>
=

>  <reported>
1

$$$$
>  <compound>
CCCCCCCCCCCCCCCCOP(=O)([O-])OCC[N+]12CCC(CC1)CC2

>  <units>
µg/mL

>  <qual>
=

>  <reported>
1

$$$$
>  <compound>
CCCCCCCCCCCCCCCCOP(=O)([O-])OC1CC[N+](C)(Cc2ccccc2)CC1 (stereo not drawn)

>  <units>
µg/mL

>  <qual>
=

>  <reported>
1

$$$$
>  <compound>
CCCCCCCC/C=C\CCCCCCCCCCCCOP(=O)([O-])OCC[N+](C)(C)C [ErPC, (13Z)-docosenylphosphocholine, reference compound]

>  <units>
µg/mL

>  <qual>
>

>  <reported>
64

$$$$

====

test system: Plasmodium falciparum (strain 3D7); test: In vitro drug susceptibility assay, protozoon D (3[H]-hypoxanthine method); assay type: cell-based

>  <compound>
CCCCCCCCCCCCCCCCOP(=O)([O-])OCC[N+]12CCC(CC1)CC2 [Compound 3]

>  <ED50 (µg/mL)>
2,25 µg/mL

$$$$
>  <compound>
CCCCCCCCCCCCCCCCOP(=O)([O-])OCC[N+]1(C)CCCCC1 [Compound 2]

>  <ED50 (µg/mL)>
2,21 µg/mL

$$$$
>  <compound>
CCCCCCCCCCCCCCCCCCOP(=O)([O-])OC1CC[N+](CC)(CC)CC1 [Compound 5]

>  <ED50 (µg/mL)>
16,31 µg/mL

$$$$
>  <compound>
CCCCCCCCCCCCCCCCOP(=O)([O-])OC1CC[N+](C)(CCc2ccccc2)CC1 (centres unmarked) [Compound 4]

>  <ED50 (µg/mL)>
15,32 µg/mL

$$$$
>  <compound>
CCCCCCCCCCCCCCCCOP(=O)([O-])OC1CC[N+](C)(Cc2ccccc2)CC1 (centres unmarked) [Compound 1]

>  <ED50 (µg/mL)>
9,97 µg/mL

$$$$

====

system: Plasmodium falciparum (strain K1); test: In vitro drug susceptibility assay, protozoon C (3[H]-hypoxanthine method); format: cell-based
List of ED50 (µg/mL) values.

>  <compound>
CCCCCCCCCCCCCCCCOP(=O)([O-])OC1CC[N+](C)(CCc2ccccc2)CC1 (centres unmarked) [Compound 4]

>  <ED50 (µg/mL)>
5,44 µg/mL

$$$$
>  <compound>
CCCCCCCCCCCCCCCCOP(=O)([O-])OC1CC[N+](C)(Cc2ccccc2)CC1 (centres unmarked) [Compound 1]

>  <ED50 (µg/mL)>
6,93 µg/mL

$$$$
>  <compound>
CCCCCCCCCCCCCCCCCCOP(=O)([O-])OC1CC[N+](CC)(CC)CC1 [Compound 5]

>  <ED50 (µg/mL)>
21,26 µg/mL

$$$$
>  <compound>
CCCCCCCCCCCCCCCCOP(=O)([O-])OCC[N+]12CCC(CC1)CC2 [Compound 3]

>  <ED50 (µg/mL)>
8,03 µg/mL

$$$$
>  <compound>
CCCCCCCCCCCCCCCCOP(=O)([O-])OCC[N+]1(C)CCCCC1 [Compound 2]

>  <ED50 (µg/mL)>
19,36 µg/mL

$$$$
